- study target: T1, human Claudin 9 (human, UniProt O95484 1-217)
- T1 construct: whole, on cells; also called CLDN9; CLND9
- T1 sequence (looked up): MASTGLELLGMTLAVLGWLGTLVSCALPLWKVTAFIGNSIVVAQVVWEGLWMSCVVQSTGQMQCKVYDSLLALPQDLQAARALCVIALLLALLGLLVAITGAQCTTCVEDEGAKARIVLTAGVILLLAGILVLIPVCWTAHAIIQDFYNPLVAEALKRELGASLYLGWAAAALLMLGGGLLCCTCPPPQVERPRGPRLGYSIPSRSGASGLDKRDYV
- assay procedure: flow cytometry, HEK293/H_CLDN9 cells, Ab titrated from 100 nM
experimental readout: Top MFI

| binder | assay value |
| --- | --- |
| 85-H10A5 (antibody, V domains shown, Tested as chimeric antibody) VH: EVQLQQSGPELVKPGASVKISCKTSGYTFTEYPMHWVKQSHEKSLEWIGGINPKNGDANSNQKFKGKATLTVDKSSSTAYMELRSLTSEDSAVYYCARGWLLLFDVWGAGTMVTVSS VL: DIQMTQSSSSFSVSLGDRVTISCKASEDIYNRLAWYQQKPGNAPRLLISGATSLETGIPSRFSGSGSGKDYTLSITTLQTEDVAAYYCQQYWSSPLTFGAGTKLELR | 113000 |
| 83-F6A6 (antibody, V domains shown, Tested as chimeric antibody) VH: QVQLQQSAPELARPGASVRMSCKASGYTFTTYTMHWVKQRPGQGLEWIGFIIPSSGYTEYNQNLKDKTTLTADKASSTAYMQLTSLTSEDSAVYYCARQFSLITTGFGYALDYWGQGTSVTVSS VL: DIVMTQSRKFMSTSVGDRVSITCKASQDVSTAVAWYQQKPGQSPKLLLYWASTRHTGVPDRFTGSGSGTDYTLTISSVQAEDLALYYCQQHYSTPLTFGAGTKLELK | 23500 |
| 67-C12E11 (antibody, V domains shown, Tested as chimeric antibody) VH: EVQLQQSGPELVKPGASVKISCKTSGYTFTEYTMHWVKQSHGKSLEWIGGINPNNGGTSYNQKFKGKATLTVDKSSSTAYMELRSLTSEDSAVYYCARGMVVAFYFDSWGQGTTLTVSS VL: DIQMTQSPASQSASLGESVTITCLASQTIGSWLAWYQQKPGKSPQLLIYAATSLADGVPSRFSGSGSGTKFSFKISSLQAEDFVSYYCQQLYSTPYTFGGGTKLEIK | 28800 |
| 59-H12C5 (antibody, V domains shown, Tested as chimeric antibody) VH: EVQLVESGGGLVQPGGSLKLSCAASGFTFSSHGMSWVRQTADRGLELVASINSNGGRTYYPDSMKGRFTISRDNAKNTLYLQLSSLQPEDTALYYCACYYDNTYYAMDYWGQGTSLTVSS VL: QIVLTQSPAIMSASLGERVTMTCTASSSVSSSSLHWYQQKPGSSPKLWIYTTSTLASGVPARFSGSGSGTSYSLTISSMEAEDAATYYCHQYHRSPPTFGGGTKLEIK | 341000 |
| 59-A2E6 (antibody, V domains shown, Tested as chimeric antibody) VH: EVQLQQSGPELVKPGASVKISCKTSGYTFTEYTMHWVKQSHGKSLEWIGGINPKNGGTSYNQKFKGKATLTVDKSSSTVYMEFRSLTTEDSAVYYCARGMLVAFYFDCWGQGTTLTVSS VL: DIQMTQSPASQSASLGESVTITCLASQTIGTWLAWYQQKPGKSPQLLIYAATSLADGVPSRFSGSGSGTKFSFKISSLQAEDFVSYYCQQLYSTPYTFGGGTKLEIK | 102000 |
| 23-B2F11 (antibody, V domains shown, Tested as chimeric antibody) VH: EVQLQQSGPELVKPGASVKISCKTSGYTFTEYTMHWVKQSHGRSLEWIGGINPNNGDTIYNQKFKGKATLTVDKSSSTAYMELRSLTSEDSAVYYCARRGGYGNFNFDYWGQGTTLTVSS VL: DIQMTQSSSSFSVSLRDRVTITCKASEDIYNRLAWYQQKPGNAPRLLISGATSLETGVPSRFSGSGSGKDYTLSITSLQTEDVATYYCQQYWSSPYTFGGGTKVEIK | 93300 |
| 81-H10F8 (antibody, V domains shown, Tested as chimeric antibody) VH: EVQLQQSGPELVKPGASVKISCKTSGYTFTEYTMHWVKQSHGKSLEWIGGINPNNGGTSYNQKFKGKATLTVDKSSRTAYMELRSLTSEDSAVYYCARGMVVAFYFDCWGQGTTLTVSS VL: DIQMTQSPASQSASLGESVTITCLASQTIGTWLAWYQQKPGKSPQLLIYAATGLADGVPSRFSGGGSGTKFSFKISSLQVEDFVSYYCQQLYSTPYTFGGGTKLEIK | 105000 |
